Read-out: Cytochrome P450 (CYP1A2), CYP1A2 (gene 1544)
ASSAY: LTEA_HepaRG_CYP1A2: Life Technologies and Expression Analysis (LTEA) Assay for Cytochrome P450 (CYP1A2) using HepaRG (AID 2283479)
STATED CONDITIONS: mRNA level, 48 h; actives raise or lower the signal
Active and inactive are the calls of the source. The calls were made as follows: active = hit-call score of the fitted dose curve at least 0.9, where 1 is the maximum; inactive = score below 0.9.
Possible outcomes: True (active), False (inactive)

[[record]]
smi = "COC(=O)c1ccccc1C(=O)O"
category = "False"

[[record]]
smi = "CCN(CC)C(=O)c1cccc(C)c1"
category = "False"

[[record]]
smi = "CCCCOC(=O)[C@@H](C)Oc1ccc(Oc2ccc(C(F)(F)F)cn2)cc1"
category = "False"

[[record]]
smi = "CCNc1nc(N)nc(Cl)n1"
category = "False"

[[record]]
smi = "O=C(O)C1(C(=O)Nc2ccc(Cl)cc2Cl)CC1"
category = "False"

[[record]]
smi = "O=C(Nc1ccc([N+](=O)[O-])cc1Cl)c1cc(Cl)ccc1O"
category = "True"

[[record]]
smi = "CCCCOCCOCCOCc1cc2c(cc1CCC)OCO2"
category = "True"

[[record]]
smi = "c1ccc2[nH]c(-c3cscn3)nc2c1"
category = "True"

[[record]]
smi = "COCCO"
category = "False"

[[record]]
smi = "CCCCCOC(=O)COc1cc(N2C(=O)C3=C(CCCC3)C2=O)c(F)cc1Cl"
category = "False"

[[record]]
smi = "C#C[C@]1(O)CC[C@H]2[C@@H]3CCC4=CC(=O)CC[C@@H]4[C@H]3CC[C@@]21CC"
category = "False"

[[record]]
smi = "COC(=O)c1ccc(I)cc1S(=O)(=O)NC(=O)Nc1nc(C)nc(OC)n1"
category = "True"


* * *

TARGET: Paired box protein Pax-6 (Homo sapiens)
ASSAY: ATG_Pax6_CIS: Attagene CIS-FACTORIAL HepG2 Assay for human Paired Box 6 (PAX6) (AID 2282956)
STATED CONDITIONS: HepG2 CIS-FACTORIAL PAX6 reporter transcription, RNA readout; actives raise or lower the signal
Active and inactive are the calls of the source. The calls were made as follows: active = hit-call score of the fitted dose curve at least 0.9, where 1 is the maximum; inactive = score below 0.9.
READOUT KIND: outcome

[[record]]
molecule = "COC(=O)c1c(Cl)nn(C)c1S(=O)(=O)NC(=O)Nc1nc(OC)cc(OC)n1"
readout_kind = "outcome"
result = "inactive"

[[record]]
molecule = "Oc1ccc(C(c2ccc(O)cc2)C(Cl)(Cl)Cl)cc1"
readout_kind = "outcome"
result = "inactive"

[[record]]
molecule = "CCCOC(=O)c1ccc(C(=O)OCCC)nc1"
readout_kind = "outcome"
result = "inactive"

[[record]]
molecule = "CCOC(=O)C(C)Oc1ccc(Oc2nc3ccc(Cl)cc3o2)cc1 (configuration not stated)"
readout_kind = "outcome"
result = "inactive"

[[record]]
molecule = "CCCN(CCC)C(=O)SCC"
readout_kind = "outcome"
result = "inactive"

[[record]]
molecule = "CC1(C)C(C=C(Cl)Cl)C1C(=O)OCc1cccc(Oc2ccccc2)c1 (configuration not stated)"
readout_kind = "outcome"
result = "inactive"

[[record]]
molecule = "CCOC(=O)COc1cc(-n2ncc(C(F)(F)F)c(C)c2=O)c(F)cc1Cl"
readout_kind = "outcome"
result = "inactive"

[[record]]
molecule = "COC(=O)c1ccc(I)cc1S(=O)(=O)NC(=O)Nc1nc(C)nc(OC)n1"
readout_kind = "outcome"
result = "inactive"

[[record]]
molecule = "OB(O)O"
readout_kind = "outcome"
result = "inactive"

[[record]]
molecule = "CCCCC(CC)COC(=O)c1ccccc1C(=O)O (configuration not stated)"
readout_kind = "outcome"
result = "inactive"

[[record]]
molecule = "COc1nc(C)nc(NC(=O)NS(=O)(=O)c2ccccc2OCCCl)n1"
readout_kind = "outcome"
result = "inactive"

[[record]]
molecule = "CCC(C)OC(=O)N1CCCCC1CCO (configuration not stated)"
readout_kind = "outcome"
result = "inactive"


* * *

ASSAY: ATG_PXRE_CIS: Attagene CIS-FACTORIAL HepG2 Assay for human Pregnane X Receptor Element (PXRE) (AID 2282957)
STATED CONDITIONS: HepG2 Attagene CIS-FACTORIAL PXRE reporter, mRNA; actives raise or lower the signal
The source made the active and inactive calls. The calls were made as follows: active = hit-call score of the fitted dose curve at least 0.9, where 1 is the maximum; inactive = score below 0.9.
Possible outcomes: active, inactive

[[record]]
smi = "CCCCOC(=O)[C@@H](C)Oc1ccc(Oc2ccc(C(F)(F)F)cn2)cc1"
category = "active"

[[record]]
smi = "C#C[C@]1(O)CC[C@H]2[C@@H]3CCC4=CC(=O)CC[C@@H]4[C@H]3CC[C@@]21CC"
category = "active"

[[record]]
smi = "CCCOC(=O)c1ccc(C(=O)OCCC)nc1"
category = "inactive"

[[record]]
smi = "COC(=O)c1c(Cl)nn(C)c1S(=O)(=O)NC(=O)Nc1nc(OC)cc(OC)n1"
category = "inactive"

[[record]]
smi = "COc1c(Cl)ccc(Cl)c1C(=O)O"
category = "inactive"

[[record]]
smi = "COC(=O)c1ccccc1S(=O)(=O)NC(=O)Nc1nc(OC(F)F)cc(OC(F)F)n1"
category = "active"


* * *

ASSAY: CCTE_Padilla_ZF_144hpf_TERATOSCORE: (Legacy) CCTE's 144 Hour Post-fertilization zebrafish Assay Teratoscore, Padilla Lab (AID 2283679)
Activity calls are given as the source filed them. The calls were made as follows: active = hit-call score of the fitted dose curve at least 0.9, where 1 is the maximum; inactive = score below 0.9.
Possible outcomes: active, inactive

[[record]]
compound = "S=C([S-])NCCNC(=S)[S-].[Mn+2]"
category = "active"

[[record]]
compound = "CCCCOC(=O)C(C)Oc1ccc(Oc2ccc(C(F)(F)F)cn2)cc1 (configuration not stated)"
category = "active"

[[record]]
compound = "CCOC(=O)NCCOc1ccc(Oc2ccccc2)cc1"
category = "active"

[[record]]
compound = "CCOC(=O)COc1cc(-n2ncc(C(F)(F)F)c(C)c2=O)c(F)cc1Cl"
category = "active"

[[record]]
compound = "O=C(Nc1ccc([N+](=O)[O-])cc1Cl)c1cc(Cl)ccc1O"
category = "active"

[[record]]
compound = "COc1c(Cl)ccc(Cl)c1C(=O)O"
category = "inactive"

[[record]]
compound = "CCOC(=O)C(C)Oc1ccc(Oc2cnc3cc(Cl)ccc3n2)cc1 (configuration not stated)"
category = "active"

[[record]]
compound = "CCCOC(=O)NCCCN(C)C"
category = "inactive"

[[record]]
compound = "CCCCC(CC)CN1C(=O)C2C3C=CC(C3)C2C1=O (configuration not stated)"
category = "active"

[[record]]
compound = "CCCOC(=O)c1ccc(C(=O)OCCC)nc1"
category = "active"

[[record]]
compound = "Cc1nn(C)c(Oc2ccccc2)c1C=NOCc1ccc(C(=O)OC(C)(C)C)cc1"
category = "active"

[[record]]
compound = "OB(O)O"
category = "inactive"


* * *

TARGET: Hypoxia-inducible factor 1-alpha (Homo sapiens) (UniProt Q16665)
Sequence (Q16665 whole entry, looked up): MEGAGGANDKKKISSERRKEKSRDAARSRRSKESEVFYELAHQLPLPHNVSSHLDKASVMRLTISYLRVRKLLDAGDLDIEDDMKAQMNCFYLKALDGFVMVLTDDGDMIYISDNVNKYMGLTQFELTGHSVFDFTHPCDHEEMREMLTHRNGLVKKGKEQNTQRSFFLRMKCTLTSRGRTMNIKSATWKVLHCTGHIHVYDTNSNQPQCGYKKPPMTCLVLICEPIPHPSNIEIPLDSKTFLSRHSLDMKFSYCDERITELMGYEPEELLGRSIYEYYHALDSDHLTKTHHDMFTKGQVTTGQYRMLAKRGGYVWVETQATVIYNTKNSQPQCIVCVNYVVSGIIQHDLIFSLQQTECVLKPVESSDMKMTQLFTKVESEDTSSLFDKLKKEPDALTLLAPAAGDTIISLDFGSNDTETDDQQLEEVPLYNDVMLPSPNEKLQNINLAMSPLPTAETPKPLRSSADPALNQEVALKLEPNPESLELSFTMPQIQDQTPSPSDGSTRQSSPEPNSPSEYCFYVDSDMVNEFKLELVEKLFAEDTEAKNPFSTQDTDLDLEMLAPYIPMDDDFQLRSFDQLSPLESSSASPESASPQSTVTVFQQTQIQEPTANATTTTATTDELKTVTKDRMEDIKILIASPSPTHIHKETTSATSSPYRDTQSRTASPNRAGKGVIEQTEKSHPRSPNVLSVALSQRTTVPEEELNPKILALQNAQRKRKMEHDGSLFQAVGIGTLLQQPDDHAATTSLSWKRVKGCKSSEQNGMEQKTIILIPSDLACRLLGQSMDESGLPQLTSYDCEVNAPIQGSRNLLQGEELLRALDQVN
ASSAY: ATG_HIF1a_CIS: Attagene CIS-FACTORIAL HepG2 Assay for human Hypoxia Inducible Factor 1 (HIF1A) (AID 2282951)
STATED CONDITIONS: HepG2 Attagene cis-factorial HIF1a reporter transcription; actives raise or lower the signal
Activity calls are given as the source filed them. The calls were made as follows: active = hit-call score of the fitted dose curve at least 0.9, where 1 is the maximum; inactive = score below 0.9.
Possible outcomes: active, inactive

[[record]]
compound = "N#CSCSc1nc2ccccc2s1"
target = "Hypoxia-inducible factor 1-alpha (Homo sapiens) (UniProt Q16665)"
category = "inactive"

[[record]]
compound = "CCCCCOC(=O)COc1cc(N2C(=O)C3=C(CCCC3)C2=O)c(F)cc1Cl"
target = "Hypoxia-inducible factor 1-alpha (Homo sapiens) (UniProt Q16665)"
category = "inactive"

[[record]]
compound = "CCN(CC)C(=O)c1cccc(C)c1"
target = "Hypoxia-inducible factor 1-alpha (Homo sapiens) (UniProt Q16665)"
category = "inactive"

[[record]]
compound = "COC(=O)c1c(Cl)nn(C)c1S(=O)(=O)NC(=O)Nc1nc(OC)cc(OC)n1"
target = "Hypoxia-inducible factor 1-alpha (Homo sapiens) (UniProt Q16665)"
category = "inactive"

[[record]]
compound = "CCCCC(CC)CN1C(=O)C2C3C=CC(C3)C2C1=O (centres undefined)"
target = "Hypoxia-inducible factor 1-alpha (Homo sapiens) (UniProt Q16665)"
category = "active"

[[record]]
compound = "COC(=O)c1ccc(I)cc1S(=O)(=O)NC(=O)Nc1nc(C)nc(OC)n1"
target = "Hypoxia-inducible factor 1-alpha (Homo sapiens) (UniProt Q16665)"
category = "inactive"

[[record]]
compound = "COC(=O)CSc1cc(N=c2sc(=O)n3n2CCCC3)c(F)cc1Cl"
target = "Hypoxia-inducible factor 1-alpha (Homo sapiens) (UniProt Q16665)"
category = "inactive"

[[record]]
compound = "CCCCC(CC)COC(=O)c1ccccc1C(=O)O (centres undefined)"
target = "Hypoxia-inducible factor 1-alpha (Homo sapiens) (UniProt Q16665)"
category = "inactive"

[[record]]
compound = "CCCCOCCOCCOCc1cc2c(cc1CCC)OCO2"
target = "Hypoxia-inducible factor 1-alpha (Homo sapiens) (UniProt Q16665)"
category = "inactive"

[[record]]
compound = "Oc1ccc(C(c2ccc(O)cc2)C(Cl)(Cl)Cl)cc1"
target = "Hypoxia-inducible factor 1-alpha (Homo sapiens) (UniProt Q16665)"
category = "inactive"

[[record]]
compound = "CCCCOC(=O)C(C)Oc1ccc(Oc2ccc(C(F)(F)F)cn2)cc1 (centres undefined)"
target = "Hypoxia-inducible factor 1-alpha (Homo sapiens) (UniProt Q16665)"
category = "inactive"

[[record]]
compound = "O=C(c1ccc(O)cc1O)c1ccc(O)cc1O"
target = "Hypoxia-inducible factor 1-alpha (Homo sapiens) (UniProt Q16665)"
category = "inactive"

[[record]]
compound = "COCCO"
target = "Hypoxia-inducible factor 1-alpha (Homo sapiens) (UniProt Q16665)"
category = "inactive"

[[record]]
compound = "CCCCCCC(C)OC(=O)COc1nc(F)c(Cl)c(N)c1Cl (centres undefined)"
target = "Hypoxia-inducible factor 1-alpha (Homo sapiens) (UniProt Q16665)"
category = "inactive"

[[record]]
compound = "CCOC(=O)COc1cc(-n2ncc(C(F)(F)F)c(C)c2=O)c(F)cc1Cl"
target = "Hypoxia-inducible factor 1-alpha (Homo sapiens) (UniProt Q16665)"
category = "inactive"

[[record]]
compound = "CCNc1nc(N)nc(Cl)n1"
target = "Hypoxia-inducible factor 1-alpha (Homo sapiens) (UniProt Q16665)"
category = "inactive"

[[record]]
compound = "CCOC(=O)c1ccc(O)cc1"
target = "Hypoxia-inducible factor 1-alpha (Homo sapiens) (UniProt Q16665)"
category = "inactive"

[[record]]
compound = "S=C([S-])NCCNC(=S)[S-].[Mn+2]"
target = "Hypoxia-inducible factor 1-alpha (Homo sapiens) (UniProt Q16665)"
category = "inactive"

[[record]]
compound = "CCCN(CCC)c1c([N+](=O)[O-])cc(C(F)(F)F)c(N)c1[N+](=O)[O-]"
target = "Hypoxia-inducible factor 1-alpha (Homo sapiens) (UniProt Q16665)"
category = "active"

[[record]]
compound = "CCOC(=O)C(C)Oc1ccc(Oc2nc3ccc(Cl)cc3o2)cc1 (centres undefined)"
target = "Hypoxia-inducible factor 1-alpha (Homo sapiens) (UniProt Q16665)"
category = "inactive"

[[record]]
compound = "CCCOC(=O)c1ccc(C(=O)OCCC)nc1"
target = "Hypoxia-inducible factor 1-alpha (Homo sapiens) (UniProt Q16665)"
category = "inactive"

[[record]]
compound = "CCCN(CCC)C(=O)SCC"
target = "Hypoxia-inducible factor 1-alpha (Homo sapiens) (UniProt Q16665)"
category = "inactive"

[[record]]
compound = "COC(=O)c1ccccc1C(=O)O"
target = "Hypoxia-inducible factor 1-alpha (Homo sapiens) (UniProt Q16665)"
category = "inactive"

[[record]]
compound = "CCOC(=O)C(C)Oc1ccc(Oc2cnc3cc(Cl)ccc3n2)cc1 (centres undefined)"
target = "Hypoxia-inducible factor 1-alpha (Homo sapiens) (UniProt Q16665)"
category = "inactive"

[[record]]
compound = "CCN(Cc1c(F)cccc1Cl)c1c([N+](=O)[O-])cc(C(F)(F)F)cc1[N+](=O)[O-]"
target = "Hypoxia-inducible factor 1-alpha (Homo sapiens) (UniProt Q16665)"
category = "inactive"

[[record]]
compound = "CCC(O)=C1C(=O)CC(C(=O)O)CC1=O (centres undefined)"
target = "Hypoxia-inducible factor 1-alpha (Homo sapiens) (UniProt Q16665)"
category = "inactive"

[[record]]
compound = "CC(C)(C)[C@@H](O)[C@@H](Cc1ccc(Cl)cc1)n1cncn1"
target = "Hypoxia-inducible factor 1-alpha (Homo sapiens) (UniProt Q16665)"
category = "inactive"

[[record]]
compound = "O=C(O)c1ccccc1"
target = "Hypoxia-inducible factor 1-alpha (Homo sapiens) (UniProt Q16665)"
category = "inactive"

[[record]]
compound = "Cc1nn(C)c(Oc2ccccc2)c1C=NOCc1ccc(C(=O)OC(C)(C)C)cc1"
target = "Hypoxia-inducible factor 1-alpha (Homo sapiens) (UniProt Q16665)"
category = "inactive"

